assay: Drug uptake in rat brain at 3 mg/kg administered via infusion over 30 mins; format: ADME, organism-based; conditions: iv, read-out: Drug uptake
value type: concentration at 0.5 h
Note: a bare number is incomplete; add the unit.

I have this compound here, N#CC1(NC(=O)[C@@H]2Cc3ccc(c(Cl)c3)OCCCCOc3cc(C(F)(F)F)ccc3C(=O)N2)CC1 , and I need its recorded concentration at 0.5 h. 256 ng/g

====

test: Drug uptake in bloodstream form of Trypanosoma brucei rhodesiense STIB 900 infected NMRI mouse blood at 25 mg/kg, ip bid administered for 4 consecutive days starting 3 days post infection measured at 16 hrs post last dose; type: ADME, organism-based; conditions: read-out: Drug uptake
value type: concentration at 16 h

I have this compound here, N#CC1(NC(=O)[C@@H]2Cc3ccc(c(Cl)c3)OCCCCOc3cc(C(F)(F)F)ccc3C(=O)N2)CC1 , and I need its recorded concentration at 16 h. 4.8 ng/mL

Try this compound too: CSc1ccc2c(c1)C(=O)N[C@H](C(=O)NC1(C#N)CC1)Cc1ccc(c(Cl)c1)OC/C=C/CO2 < 10 ng/mL
